MEASUREMENT TARGET: ScHof1
ASSAY: SPOT peptide array binding signal intensity (averaged, normalized) (arbitrary units (background-subtracted, floor 0; scale differs between SH3 domains)); higher = stronger binding of the SH3 domain to the peptide
Would you kindly list SPOT peptide array binding signal intensity for each of these binders?

>  <BINDER>
LKPPIGRPPKFPKSP

>  <RESULT>
≤ 0

$$$$
>  <BINDER>
VFQFQMPTTPISTKM

>  <RESULT>
≤ 0

$$$$

Next binder, please.
Challenge: Would you kindly share the measured SPOT peptide array binding signal intensity for NSMRPPLLIPAATTK ?
Response given: ≤ 0
